system: HS 578T breast; experiment: NCI-60 one-dose screen, 48 h (100 = growth as untreated, 0 = no growth, -100 = all killed); conditions: 10 µM unless noted
The panel holds about 83,000 compounds, 20% with a hit somewhere; the sample as a whole holds those more often.
endpoint.label: growth (%)
Give the value in % but do not write % after it.

Before answering, review these 4 worked examples.
| sample.smiles | growth (%) |
| --- | --- |
| Cc1nc(-c2cc3ccccc3oc2=O)ccc1C(=O)/C=C/c1ccc(Cl)c(Cl)c1 | 90.7 |
| Nc1c(C(=O)c2ccc(Br)cc2)oc2nc(-c3cnccn3)cc(-c3cccs3)c12 | 101 |
| N#Cc1c(-c2ccc(Cl)cc2)nc(SCc2ccccc2)nc1N1CCNCC1 | 91.1 |
| CC(=O)Oc1ccccc1C(=O)Nc1ccc(C(=O)/C=C/c2ccncc2)cc1 | 69.5 |

Query: growth; subject: Cc1ccc2c(n1)C(=O)C(Cl)=C(Nc1cccc(C(C)C)c1)C2=O
43.1

###

Listed here are molecules together with their documented growth.
system: UACC-257 melanoma; assay: NCI-60 one-dose screen, 48 h (100 = growth as untreated, 0 = no growth, -100 = all killed); conditions: 10 µM unless noted
This is part of a sample that, as a whole, favours compounds with a hit. Of some 83,000 tested, about 20% had one in any assay.
Give the value in % but do not write % after it.

| molecule | growth / % |
| --- | --- |
| C/C(=N/NC(N)=S)c1ccc(Nc2nc(SCC(C)C)nc(-c3ccc(F)cc3)c2C#N)cc1 | 63.3 |
| C#Cc1nc(C2=C(C)C(O)/C(=N/O)C2)cs1 (centres undefined) | 90.7 |
| C[C@@H]1CN(c2ccc3ncc(C#Cc4cncc(C(=O)Nc5ccc(CN6CCN(C)CC6)c(C(F)(F)F)c5)c4)n3n2)C[C@H](C)O1 | -19.1 |
| Clc1ccc2oc3c(OCCCn4ccnc4)c4ccccc4nc3c2c1 | 96.4 |
| N#Cc1nc(-c2ccccc2)oc1N1CC[C@@H](CO)C1 | 110 |
| COc1ccc(Cc2nn(CC(=O)N/N=C/c3ccc(Cl)cc3)c(=O)c3c(C)noc23)cc1 | 90.9 |
| Cc1cc(C(=O)Nc2sc3c(c2C(N)=O)CCC(=O)C3)ccc1OCCN1CCCCC1 | 107 |
| CS(=O)(=O)Nc1ccc(-c2nn(-c3ccc(S(C)(=O)=O)cc3)cc2/C=C/C(=O)c2ccc(NC(=O)CO[N+](=O)[O-])cc2)cc1 | 103 |

// switching to the query molecule
Query: growth; subject: N#Cc1ccc(/C=N/NC(=O)c2[nH]c3ccc(Br)cc3c2-c2ccccc2)s1
40.9

###

test system: OVCAR-3 ovarian; experiment: NCI-60 one-dose screen, 48 h; conditions: 10 µM unless noted
This is part of a sample that, as a whole, favours compounds with a hit. Of some 83,000 tested, about 20% had one in any assay. Active and inactive are the calls of the source. Rule for the calls: active = growth percent below 10; inactive = the rest.
Choose the fitting class; nothing outside active, inactive is accepted.

Solved cases (8 shown):
| compound | tested.system | class.name |
| --- | --- | --- |
| CC(=NNc1ncnc2ccccc12)c1ccc(S(C)(=O)=O)cc1 | OVCAR-3 ovarian | inactive |
| Cc1ccc2c(n1)C(=O)C(Cl)=C(Nc1cccc(C(C)C)c1)C2=O | OVCAR-3 ovarian | active |
| COc1ccc(-c2cc(C(=O)N=Nc3c(O)[nH]c4ccccc34)c3ccccc3n2)cc1OC | OVCAR-3 ovarian | inactive |
| N/C(=N\c1nc2c(Cl)cc(Cl)cc2s1)C(Cl)(Cl)Cl | OVCAR-3 ovarian | active |
| CN(C)c1ccc(-c2c(NC(C)(C)C)nc3c(OCCc4ccccc4)cccn23)cc1 | OVCAR-3 ovarian | inactive |
| CN1C(=O)N(c2ccccc2)C2N=C(N/N=C/c3ccccc3)SC21 (stereo not given) | OVCAR-3 ovarian | inactive |
| O=C(c1ccc(O)cc1)C1[C@H](c2ccc(Cl)cc2)[C@@H](c2ccccc2)NC12C(=O)Nc1ccc(Cl)cc12 (stereo not given in full) | OVCAR-3 ovarian | inactive |
| CN(C)CCCNc1c2ccc(Cl)cc2nc2c1oc1ccc(Cl)cc12 | OVCAR-3 ovarian | active |

Hi, sorry to bother you, what did the test record for N#Cc1nc(-c2ccccc2)oc1S(=O)(=O)N1CCCCC1 ?
active

Request: COc1cc(/C=C/C(=O)c2ccc(Cl)cc2)ccc1Oc1nc(NCCO)nc(N2CCOCC2)n1
inactive
